Biological target: G1/S-specific cyclin-D3 (Homo sapiens, UniProt P30281)
Sequence (P30281 whole entry): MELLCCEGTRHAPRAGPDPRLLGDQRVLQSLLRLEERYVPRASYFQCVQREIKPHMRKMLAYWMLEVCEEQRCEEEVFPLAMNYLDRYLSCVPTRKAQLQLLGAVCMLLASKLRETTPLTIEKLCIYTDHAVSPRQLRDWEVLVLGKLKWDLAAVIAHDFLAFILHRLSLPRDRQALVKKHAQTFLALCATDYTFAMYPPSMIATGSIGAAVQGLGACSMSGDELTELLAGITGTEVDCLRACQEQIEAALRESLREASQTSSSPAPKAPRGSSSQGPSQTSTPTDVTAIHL
assay-endpoint: IC50 (nM)
// note: answer is a bare numeric in nM

Data request, read-out IC50, for Cc1ncc(-c2ccnc(Nc3ccc(S(C)(=O)=O)cc3)n2)n1C(C)C [AZD-5438]
21

----------
Biological target: UniProtKB P24941
We label by threshold. Values of IC50 strictly beneath 0.01 µM are satisfied. Values of 0.01 µM and up are not satisfied.

Strictly below 0.01 µM in IC50? `Cc1ncc(-c2ccnc(Nc3ccc(S(=O)(=O)Cc4ccccc4)cc3)n2)n1C(C)C`
not satisfied

Moving on to `CCCS(=O)(=O)c1ccc(Nc2nccc(-c3cnc(C)n3C(C)C)n2)cc1`
satisfied

Moving on to `CNS(=O)(=O)c1ccc(Nc2nccc(-c3cnc(C)n3C)n2)cc1`
satisfied

----------
Target: Cyclin-dependent kinase 2 (Homo sapiens)
Let's look at some molecules and their measured IC50.
// note: answer is a bare numeric in nM

>  <molecule>
Cc1ncc(-c2ccnc(Nc3ccc(S(=O)(=O)CCCN4CCOCC4)cc3)n2)n1C(C)C

>  <IC50 (nM)>
33

$$$$
>  <molecule>
Cc1ncc(-c2ccnc(Nc3ccc(S(=O)(=O)NCCN(C)C)cc3)n2)n1C

>  <IC50 (nM)>
25

$$$$
>  <molecule>
Cc1ncc(-c2ccnc(Nc3ccc(S(=O)(=O)NCCCOC(C)C)cc3)n2)n1C

>  <IC50 (nM)>
6

$$$$
>  <molecule>
COCCNS(=O)(=O)c1ccc(Nc2nccc(-c3c(C)nc(C)n3C)n2)cc1

>  <IC50 (nM)>
68

$$$$
>  <molecule>
COCCN(C)S(=O)(=O)c1ccc(Nc2nccc(-c3cnc(C)n3C)n2)cc1

>  <IC50 (nM)>
400

$$$$
>  <molecule>
CCn1c(-c2ccnc(Nc3ccc(S(C)(=O)=O)cc3)n2)cnc1C

>  <IC50 (nM)>
23

$$$$

// fetch Cyclin-dependent kinase 2 (Homo sapiens) IC50 for Cc1ncc(-c2ccnc(Nc3ccc(S(=O)(=O)CC4CCCO4)cc3)n2)n1C(C)C (stereo not drawn)
13

Moving on to `COCCNS(=O)(=O)c1ccc(Nc2nccc(-c3cnc(C)n3CC(C)C)n2)cc1`
15

Moving on to `CCn1c(-c2ccnc(Nc3ccc(S(=O)(=O)NCCOC)cc3)n2)cnc1C`
4

Moving on to `Cc1ncc(-c2ccnc(Nc3ccc(S(=O)(=O)CCCN(C)C)cc3)n2)n1C`
295

Moving on to `Cc1ncc(-c2ccnc(Nc3ccc(S(N)(=O)=O)cc3)n2)n1C`
11

From: ChEMBL document CHEMBL1142453
